# test target: T1, HetR D278A (Anabaena sp. PCC 7120, UniProt P27709 1-299, D278A)
# T1 construct: HetR of Anabaena sp; PCC 7120, point mutant made from the plasmid of wild-type HetR; source: E. coli, purified in the same manner as the wild-type protein
# T1 sequence (looked up): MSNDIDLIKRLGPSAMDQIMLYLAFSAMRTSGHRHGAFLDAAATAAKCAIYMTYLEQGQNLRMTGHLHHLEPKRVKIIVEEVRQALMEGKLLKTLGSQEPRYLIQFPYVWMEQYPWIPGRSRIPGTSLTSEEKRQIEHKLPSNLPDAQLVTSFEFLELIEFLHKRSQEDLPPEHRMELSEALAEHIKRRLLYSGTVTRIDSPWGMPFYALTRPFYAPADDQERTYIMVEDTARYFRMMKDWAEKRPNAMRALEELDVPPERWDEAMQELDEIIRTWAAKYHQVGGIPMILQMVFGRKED
# experiment summary: ITC; iTC200, 25 °C; protein in the sample cell (10 or 50 μM), PatS6 in the syringe (150 or 750 μM; 2 mM for HetR_(Hood)); 1 M NaCl, 5% (v/v) glycerol, 10 mM Tris-Cl, pH 7.8
# setup conditions: both partners purified
outcome measure: pKd
Keep in mind that pKd stands for -log10 of concentration in molar terms.

Kindly note the recorded pKd for ERGSGR (PatS-derived hexapeptide; RGSGR is the C-terminal five residues of PatS of Anabaena sp; PCC 7120; source: synthetic peptide (GL Biochem, Shanghai)) [PatS6 (PatS-derived hexapeptide ERGSGR)] , which is 5.79
